protocol-details: Hygroscopicity by dynamic vapor sorption (DVS) at 25° C.
Assay type: physicochemical
test-settings: DVS 25° C., 10% RH, 2nd sorption
readout-kind: Sorp. (%)
Respond with the bare value in %.

// lookup Sorp. (%) for CCOc1cc(C(=O)N(C)Cc2cnc(CO)c3cn[nH]c23)ccc1-c1cc(F)cc(F)c1.Cl [HCl salt Pattern A] 0.20

====

protocol-details: Hygroscopicity by dynamic vapor sorption (DVS) at 25° C.
Format: physicochemical
test-settings: DVS 25° C., 40% RH, 2nd sorption
readout-kind: Sorp. (%)
Respond with the bare value in %.

{"compound": "CCOc1cc(C(=O)N(C)Cc2cnc(CO)c3cn[nH]c23)ccc1-c1cc(F)cc(F)c1.Cl [HCl salt Pattern A]", "test-result": 0.29}
{"compound": "CCOc1cc(C(=O)N(C)Cc2cnc(CO)c3cn[nH]c23)ccc1-c1cc(F)cc(F)c1.O=P(O)(O)O [Phosphate salt Pattern A]", "test-result": 0.21}
{"compound": "CCOc1cc(C(=O)N(C)Cc2cnc(CO)c3cn[nH]c23)ccc1-c1cc(F)cc(F)c1 [Free form Pattern A]", "test-result": 3.82}

Okay, next one:
// lookup Sorp. (%) for CCOc1cc(C(=O)N(C)Cc2cnc(CO)c3cn[nH]c23)ccc1-c1cc(F)cc(F)c1.[Na] [Sodium salt Pattern A] 0.38

Values were extracted from patent US20250084080A1.
